- test.method.notes: Luminescence quantum yield, emission and brightness in aqueous 0.1 M TRIS buffer
- Format: physicochemical
- recorded.conditions: 0.1M TRIS buffer pH = 7.4
recorded.metric: øTot
Just the number.

Problem: Could you please provide reported øTot for O=C(NCCN(CCNC(=O)c1cccc(=O)n1O)CCOCCN(CCNC(=O)c1cccc(=O)n1O)CCNC(=O)c1cccc(=O)n1O)c1cccc(=O)n1O.[Eu] ? Thanks!
Result: 0.067

Problem: Could you please provide reported øTot for O=C(NCCN(CCNC(=O)c1cccc(=O)n1O)CCOCCOCCOCCN(CCNC(=O)c1cccc(=O)n1O)CCNC(=O)c1cccc(=O)n1O)c1cccc(=O)n1O ? Thanks!
Result: 0.165

Problem: Could you please provide reported øTot for O=C(NCCN(CCNC(=O)c1cccc(=O)n1O)CCOCCOCCOCCOCCN(CCNC(=O)c1cccc(=O)n1O)CCNC(=O)c1cccc(=O)n1O)c1cccc(=O)n1O.[Eu] [[Eu(H(14O4,2)-1,2HOPO)]^0] ? Thanks!
Result: 0.192

Problem: Could you please provide reported øTot for O=C(NCCN(CCNC(=O)c1cccc(=O)n1O)CCOCCOCCN(CCNC(=O)c1cccc(=O)n1O)CCNC(=O)c1cccc(=O)n1O)c1cccc(=O)n1O ? Thanks!
Result: 0.112

Problem: Could you please provide reported øTot for O=C(NCCN(CCNC(=O)c1cccc(=O)n1O)CCOCCOCCOCCOCCOCCN(CCNC(=O)c1cccc(=O)n1O)CCNC(=O)c1cccc(=O)n1O)c1cccc(=O)n1O.[Eu] [[Eu(H(17O5,2)-1,2HOPO)]^0] ? Thanks!
Result: 0.196
